assay_overview: self-splicing fitness, log relative to wild type (ln ratio); higher = more splicing; Tetrahymena group I intron in knt gene, E. coli kanamycin selection, DiMSum; sequences stand for … in CUCUCU…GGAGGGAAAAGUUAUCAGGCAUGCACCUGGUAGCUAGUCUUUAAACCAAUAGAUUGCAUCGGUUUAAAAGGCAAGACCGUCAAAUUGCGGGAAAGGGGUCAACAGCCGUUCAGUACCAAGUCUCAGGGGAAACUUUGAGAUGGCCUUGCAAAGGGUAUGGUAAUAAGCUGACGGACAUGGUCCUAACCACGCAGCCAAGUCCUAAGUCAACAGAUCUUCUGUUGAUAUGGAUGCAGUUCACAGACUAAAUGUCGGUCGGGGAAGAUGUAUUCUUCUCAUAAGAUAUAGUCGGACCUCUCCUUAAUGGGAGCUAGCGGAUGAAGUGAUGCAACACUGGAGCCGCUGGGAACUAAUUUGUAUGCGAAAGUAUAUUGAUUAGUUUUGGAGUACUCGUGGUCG;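 further: selection with 25 µg/mL kanamycin versus none on LB agar overnight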
test_settings: 37 °C
Catalogue of self-splicing fitness (ln) values
measurement_type: self-splicing fitness (ln)

>>> observed_measurement("CGAUAGCAAUAUUACGCUUC")
-2.99
>>> observed_measurement("GAUAAGCAAUAUUACGUGGC")
-2.24
>>> observed_measurement("UAUGAGCAAUAUUACGAAGU")
-1.93
>>> observed_measurement("GAACAGCAAUAUUACGAAUU")
-0.293
>>> observed_measurement("CGUGAGCAAUAUUACGAAAG")
-0.94
>>> observed_measurement("CACCAGCAAUAUUACGGCCC")
-0.352
>>> observed_measurement("UUCUAGCAAUAUUACGAACA")
-0.35
>>> observed_measurement("GUGAAGCAAUAUUACGAGUU")
-1.14
>>> observed_measurement("UAGGAGCAAUAUUACGUACC")
-2.69
>>> observed_measurement("GGUCAGCAAUAUUACGGCCG")
-1.64
>>> observed_measurement("CCCUAGCAAUAUUACGGCUU")
-2.26
>>> observed_measurement("AAAUAGCAAUAUUACGUCAA")
-1.8
>>> observed_measurement("GAUGAGCAAUAUUACGUCUA")
-1.2
>>> observed_measurement("GCAGAGCAAUAUUACGCUUC")
-2.22
>>> observed_measurement("AUGCAGCAAUAUUACGUUAC")
-1.54
>>> observed_measurement("ACCUAGCAAUAUUACGAUCA")
-1.19
>>> observed_measurement("ACUCAGCAAUAUUACGGUGC")
-0.59
>>> observed_measurement("GCGUAGCAAUAUUACGUGUU")
-0.761
>>> observed_measurement("GGUUAGCAAUAUUACGUCGC")
-0.982
>>> observed_measurement("CCUUAGCAAUAUUACGUAUC")
-2.17
>>> observed_measurement("AGUUAGCAAUAUUACGCUCC")
-1.02
>>> observed_measurement("GUUCAGCAAUAUUACGGUUU")
-0.0386
>>> observed_measurement("AAGCAGCAAUAUUACGUGGU")
-1.27
>>> observed_measurement("GCUCAGCAAUAUUACGACCG")
-0.109
>>> observed_measurement("AUAGAGCAAUAUUACGAACA")
-1.09
>>> observed_measurement("CGUUAGCAAUAUUACGCUGG")
-1.83
>>> observed_measurement("CCGUAGCAAUAUUACGAAAC")
-0.972
>>> observed_measurement("UAGGAGCAAUAUUACGGUAG")
-1.56
>>> observed_measurement("CGUAAGCAAUAUUACGACAU")
-1.8
>>> observed_measurement("GCUGAGCAAUAUUACGCGGA")
-2.82
>>> observed_measurement("GGCUAGCAAUAUUACGAGUG")
0.347
>>> observed_measurement("GCUUAGCAAUAUUACGCGGU")
-3.42
>>> observed_measurement("UGCGAGCAAUAUUACGUCCU")
-0.627
>>> observed_measurement("UAGAAGCAAUAUUACGUCUA")
-0.539

From: the supplement of paper PMC7877785
